System: Liver microsomes
Assay: Metabolic stability in rat liver microsomes in presence of UDPGA
Format: ADME, Microsome
endpoint: Stability (%/hr)

# example entries with known answers
CN(C)S(=O)(=O)N(C)[C@@H]1CCCn2c1nc(C(=O)NCc1ccc(F)cc1)c(O)c2=O = 81
Cc1nn(C)c(C)c1S(=O)(=O)N(C)C1CCCn2c1nc(C(=O)NCc1ccc(F)cc1)c(O)c2=O (racemic) = 94

[A] CN(C1CCCn2c1nc(C(=O)NCc1ccc(F)cc1)c(O)c2=O)S(C)(=O)=O (racemic)
[B] CN(C(=O)CS(=O)(=O)N(C)C)[C@H]1CCCn2c1nc(C(=O)NCc1ccc(F)cc1)c(O)c2=O
(Q) For A and B , which recorded Stability is lower? State the label of the item chosen.
(A) B
